Each recorded value in this set is attributed to the RNAGym collection of RNA variant scans (doi:10.1073/pnas.2313332121).

B1: TPR t1 (parent)
chain: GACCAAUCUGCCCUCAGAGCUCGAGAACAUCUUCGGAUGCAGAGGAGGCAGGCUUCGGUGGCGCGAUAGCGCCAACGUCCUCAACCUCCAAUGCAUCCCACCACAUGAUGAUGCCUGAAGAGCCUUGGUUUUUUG

variants of: B1; assay: polymerase ribozyme fitness, log enrichment relative to wild type (log ratio); higher = more active; in vitro selection for triplet polymerase activity
Assign class 1 whenever polymerase ribozyme fitness (log ratio) does not fall below -4; assign class 0 whenever it does.

Some solved entries appear below for comparison.
1) GACCAAUCUGGCCUCAGAGCUCGAGAACAUCUUCGGAUGCAGAGGAGGCAGGCUUCGGUGGCGCGAUAGCGCCAACGUCCUCAACCUCCAAUGCAUCCCACCACAUGAUGAUGCCUGAAGAGUCUUGGUUUUUUG [C11G C123U] ... class 1
2) GAUCAAUCUGCCCUCAGAGUUCGAGAACAUCUUCGGAUGCAGAGGAGGCAGGCUUCGGUGGCGCGAUAGCGCCAACGUCCUCAACCUCCAAUGCAUCCCACCACAUGAUGAUGCCUGAAGAGCCUUGGUUUUUUG [C3U C20U] ... class 1
3) GUCCAAUCUGUCCUCAGAGCUCGAGAACAUCUUCGGAUGCAGAGGAGGCAGGCUUCUGUGGCGCGAUAGCGCCAACGUCCUCAACCUCCAUUGCAUCCCACCACAUGAUGAUGCCUGAAGAGCCUUGGUUUUUUG [A2U C11U G57U A91U] ... class 0
4) GACCAAUCUGCCCUCAGAGCUCGAGAACAUUUUCGGAUGCAGAGGAGGCAGGCUUCGGUGGCGCGAUAGCGGCAACGUCCUCAACCUCCAAUGCAUCCCACCACAUGAUGAUGCCUGAAGAGCCUUGGUUUUUUG [C31U C72G] ... class 0
5) GAGCAAUCUGCCCUCAGAGCUCGAGAACAUCUUCGGAUGCAGAGGAGGCAGGCUUCGGUGGCGCGAUAGCGCCAACGUCCUCAACCUGCAAUGCAUCCCACCACAUGAUGAUGCCUGAAGAGCCUUGGUUUUUUG [C3G C88G] ... class 1
6) GACCAAUCUGCCCUCAGAGCUCGAGAACAUCUUCGGAUGGAGAGGAGGCAGGCUUCGGUGGCGCGAUAGCGUCAACGUCCUCAACCUCCAAUACAUCCCACCACAUGAUGAUGCCUGAAGAGCCUUGGUUUUUUG [C40G C72U G93A] ... class 1

hey, is polymerase ribozyme fitness (log ratio) for this one >= -4? GACCAAUCUGCCCUCAGAGCUCGAGAACAUCUUCGGAUGCAGAGGAGGCAGGUUUCGGUGGCGCGAUAUUGCCAACGUCCUUAACCUCCAAUGCAUCCCACCACAUGAUGAUGCCUGAAGAGCCUUGGUUUUUUG [C53U G69U C70U C82U]
class 1
